Listing of recorded melting point by entry.

// sample O=C(O)c1ccc(-c2cccs2)s1 , its melting point was 177 to 178 °C

// sample C=CCNC(=S)NN , its melting point was 93 to 96 °C

// sample CN1C(=O)Cc2cc(S(=O)(=O)Cl)ccc21 , its melting point was 154 to 158 °C

// sample O=C(Cl)c1ccc(N2CCOCC2)nc1 , its melting point was 158 to 159 °C

// sample COc1cccc2cc(C(=O)c3cc4ccccc4o3)oc12 , its melting point was 154 to 155 °C

----------
Listing of recorded melting point by entry.

Sample records with melting point:
> print(dat)
                       smiles.structure   readout.name       observed
1  CCN(CC)c1cc(Cl)c2nonc2c1[N+](=O)[O-]  melting point  132 to 135 °C
2                     Cc1nc(N)nc(O)c1Br  melting point  244 to 246 °C
3          OCc1c(Br)c(Br)c(Br)c(Br)c1Br  melting point  264 to 265 °C
4             Cc1noc(-c2ccccc2)c1C(=O)O  melting point  190 to 191 °C
5            O=c1[nH]c(=S)[nH]c2ccccc12  melting point  320 to 322 °C

// sample COc1ccc(-n2c(SC)nc3ccccc3c2=O)cc1 , its melting point was 154 to 156 °C

// sample S=C=Nc1cc(Br)ccc1Br , its melting point was 49 to 51 °C

// sample Nc1nsc(-c2ccccc2)n1 , its melting point was 136 to 138 °C

// sample Cc1c(C(=O)c2ccccc2C(=O)O)sc2ccccc12 , its melting point was 181 to 183 °C

// sample COc1ccc2[nH]c(C(=O)O)cc2c1 , its melting point was 197 to 201 °C

----------
Readout name: melting point

Sample records with melting point:
> print(dat)
                           smiles.structure       observed
1     Cc1ccccc1OP(=O)(Oc1ccccc1C)Oc1ccccc1C         -25 °C
2  N[C@@H](Cc1ccc(O)c([N+](=O)[O-])c1)C(=O)O  233 to 235 °C
3                  COC(=O)c1cccc(C(=O)O)c1N  160 to 167 °C
4            O=C(O)c1cc2cc(Cl)cc(Cl)c2oc1=O  198 to 200 °C
5                       CSC(=NC#N)Nc1ccccc1  185 to 186 °C

// sample Cc1ccc(C(N)=O)c(N)c1 , its melting point was 147 to 148 °C

// sample O=C1NC(=S)NC(=O)C1=Cc1ccc(-c2ccc(Cl)cc2)o1 , its melting point was 280 °C

----------
Readout name: melting point

> print(dat)
                                   compound       observed
1  CC[C@@]1(O)CC[C@H]2[C@@H]3CCC4CC(OC(C)=O)CC[C@]4(C)[C@H]3CC[C@@]21C (stereo partly drawn)  164 to 165 °C
2       O=c1c(Cl)c(SCc2ccccc2)cnn1-c1ccccc1  138 to 140 °C

Shift focus to the following entry.
// sample Cc1cc(C)c(CC(=O)c2oc3ccccc3c2NC(=O)c2ccccc2)c(C)c1 , its melting point was 198 to 199 °C

Data credit: a melting point compilation (Tetko et al.)
